Catalogue of compounds with associated MIC
System: Escherichia coli
Assay: Antibacterial activity against Escherichia coli IH3080 by Etest method in presence of NAB7061
Assay type: functional
Metric name: MIC (µg/mL)

>>> result_number("CC[C@H]1OC(=O)[C@H](C)[C@@H](O[C@H]2C[C@@](C)(OC)[C@@H](O)[C@H](C)O2)[C@H](C)[C@@H](O[C@@H]2O[C@H](C)C[C@H](N(C)C)[C@H]2O)[C@](C)(O)C[C@@H](C)CN(C)[C@H](C)[C@@H](O)[C@]1(C)O")
0.173
>>> result_number("C/C(=C\\C(=O)OCCCCCCCCC(=O)O)C[C@@H]1OC[C@H](C[C@@H]2O[C@H]2[C@@H](C)[C@H](C)O)[C@@H](O)[C@H]1O")
0.146
>>> result_number("CC[C@H]1OC(=O)[C@H](C)[C@@H](O[C@H]2C[C@@](C)(OC)[C@@H](O)[C@H](C)O2)[C@H](C)[C@@H](O[C@@H]2O[C@H](C)C[C@H](N(C)C)[C@H]2O)[C@](C)(O)C[C@@H](C)C(=O)[C@H](C)[C@@H](O)[C@]1(C)O")
0.25
>>> result_number("CC[C@H]1OC(=O)[C@H](C)[C@@H](O[C@H]2C[C@@](C)(OC)[C@@H](O)[C@H](C)O2)[C@H](C)[C@@H](O[C@@H]2O[C@H](C)C[C@H](N(C)C)[C@H]2O)[C@](C)(OC)C[C@@H](C)C(=O)[C@H](C)[C@@H](O)[C@]1(C)O")
0.105

* * *

Below, each of the molecules is paired with its reported MIC value.
Test system: Klebsiella pneumoniae
Assay: Antibacterial activity against Klebsiella pneumoniae ATCC 13883 by Etest method in presence of NAB7061
Type: functional
Metric name: MIC

>>> result("CO[C@H]1/C=C/O[C@@]2(C)Oc3c(C)c(O)c4c(O)c(c(/C=N/N5CCN(C)CC5)c(O)c4c3C2=O)NC(=O)/C(C)=C\\C=C\\[C@H](C)[C@H](O)[C@@H](C)[C@@H](O)[C@@H](C)[C@H](OC(C)=O)[C@@H]1C [RIFAMPIN]")
"≤ 0.073 µg/mL"
>>> result("CC[C@H]1OC(=O)[C@H](C)[C@@H](O[C@H]2C[C@@](C)(OC)[C@@H](O)[C@H](C)O2)[C@H](C)[C@@H](O[C@@H]2O[C@H](C)C[C@H](N(C)C)[C@H]2O)[C@](C)(O)C[C@@H](C)C(=O)[C@H](C)[C@@H](O)[C@]1(C)O [ERYTHROMYCIN]")
"≤ 0.143 µg/mL"
>>> result("CC[C@H]1OC(=O)[C@H](C)[C@@H](O[C@H]2C[C@@](C)(OC)[C@@H](O)[C@H](C)O2)[C@H](C)[C@@H](O[C@@H]2O[C@H](C)C[C@H](N(C)C)[C@H]2O)[C@](C)(OC)C[C@@H](C)C(=O)[C@H](C)[C@@H](O)[C@]1(C)O [CLARITHROMYCIN]")
"≤ 0.141 µg/mL"
>>> result("C/C(=C\\C(=O)OCCCCCCCCC(=O)O)C[C@@H]1OC[C@H](C[C@@H]2O[C@H]2[C@@H](C)[C@H](C)O)[C@@H](O)[C@H]1O [MUPIROCIN]")
"≤ 0.167 µg/mL"
>>> result("CC[C@H]1OC(=O)[C@H](C)[C@@H](O[C@H]2C[C@@](C)(OC)[C@@H](O)[C@H](C)O2)[C@H](C)[C@@H](O[C@@H]2O[C@H](C)C[C@H](N(C)C)[C@H]2O)[C@](C)(O)C[C@@H](C)CN(C)[C@H](C)[C@@H](O)[C@]1(C)O [AZITHROMYCIN]")
"≤ 0.126 µg/mL"
